assay: in vivo; parameters: species or system mouse (male Carworth Farms #1); conditions: mouse, ip
recorded.metric: TD50 (mg/kg)
The figure you give is taken to be in mg/kg; do not add the unit.

Illustrative cases are given below, each with its answer.
# given.smiles, readout.units, endpoint.value
records = [
    ("NC(=O)NN=C(c1ccccc1)c1cccnc1", "mg/kg", 84.6),
    ("NC(=O)NN=C(c1ccccc1)c1ccncc1", "mg/kg", 160),
]

Attention now shifts to the item below.
Need TD50 of "CC(=NNc1cccc(Cl)c1)c1ccncc1" , thanks.
441

====

Listing of entries alongside the reported P.I., TD50/ED50, MES.
system: maximal electroshock seizures; assay: Maximal electroshock seizure (MES) test, mouse, i.p.; type: in vivo, mouse (male Carworth Farms #1); conditions: mice, Table 5
Enter the number alone.

# given.smiles, target.desc, P.I., TD50/ED50, MES
records = [
    ("CC(=NNc1cccc(Cl)c1)c1ccncc1", "maximal electroshock seizures", 5.39),
    ("NC(=O)NN=C(c1ccccc1)c1cccnc1", "maximal electroshock seizures", 3.87),
]

// next entry
Sample "NC(=O)NN=C(c1ccccc1)c1ccncc1" — what was its P.I., TD50/ED50, MES?
2.79
